Origin of measurements: ChEMBL document CHEMBL3988442

# Tested on: Leishmania donovani
# ASSAY PROTOCOL: Leishmania intramacrophage assay
# Assay type: functional, organism-based
# Parameters: scale not given: in the data most compounds retested in dose-response had high values
# EXPERIMENTAL SETUP: 30.3 µM; […]
The campaign covered roughly 69,000 compounds. About 1,000 (1.4%) showed an effect of 50% or more. This is one part of a sample in which strong results are shown more often than they occur.
PARAMETER MEASURED: Percent Effect (%)
Give just the number in %; leave the unit off.

Q: Fill in reported Percent Effect for this entry: CC(C)c1nc(-c2cc(C(=O)NCCCO)c3ccccn23)cs1
Result: 30

Q: Fill in reported Percent Effect for this entry: CC(C)C(C)N1Cc2cccc(NCC(=O)N(C)C)c2C1 (stereo not drawn)
Result: 29.96

Q: Fill in reported Percent Effect for this entry: COCC(=O)NCCc1nc(N(C)C)ncc1-c1ccncc1
Result: 29.7

----------
Can you tell me Percent Effect for the items I'm about to list?
# Test system: Leishmania donovani
# ASSAY PROTOCOL: Leishmania intramacrophage assay
# Format: functional, organism-based
# Parameters: scale not given: in the data most compounds retested in dose-response had high values
# EXPERIMENTAL SETUP: 30.3 µM; […]
About 1,000 (1.4%) of roughly 69,000 compounds showed an effect of 50% or more. The sample holds strong results, similar compounds and a random draw of the others, so the mix is not that of the screen.
Give just the number in %; leave the unit off.

Q: Fill in reported Percent Effect for this entry: O=C(NC[C@H]1CC[C@H](c2ccnc3ncnn32)CC1)C1CC1
Result: 16.97

Q: Fill in reported Percent Effect for this entry: Cc1c(-c2c(-c3ccccc3)ncn2[C@H](CO)C(=O)O)cnn1C
Result: 25.35

Q: Fill in reported Percent Effect for this entry: CC(Cn1cccn1)NCc1cnc(N2CCCC2)nc1 (stereo unspecified)
Result: 6.002

Q: Fill in reported Percent Effect for this entry: CCn1cc(NC(=O)C(C)n2ncc(Cl)c2C)c(C(=O)NCC(C)C)n1 (stereo unspecified)
Result: 23.51

Q: Fill in reported Percent Effect for this entry: Cc1nn(C)c(C)c1-c1c(-c2ccccc2)ncn1[C@H](CO)C(=O)O
Result: 46.15

Q: Fill in reported Percent Effect for this entry: CC(C)Oc1ncccc1CNC(=O)NC(C)c1cccs1 (stereo unspecified)
Result: 19.58

----------
Can you tell me Percent Effect for the items I'm about to list?
# System: Leishmania donovani
# ASSAY PROTOCOL: Leishmania intramacrophage assay
# Assay type: functional, organism-based
# Set-up: scale not given: in the data most compounds retested in dose-response had high values
# EXPERIMENTAL SETUP: 30.3 µM; […]
The campaign covered roughly 69,000 compounds. About 1,000 (1.4%) showed an effect of 50% or more. The full list was thinned out, with strong results kept by preference.
Give just the number in %; leave the unit off.

Q: Fill in reported Percent Effect for this entry: COc1cccc2c1OCC(Cc1cc(C(N)=O)ccn1)C2 (centres undefined)
Result: 69.64

Q: Fill in reported Percent Effect for this entry: COc1ccc(C(C)NCc2ccnn2C)cc1Cn1cccn1 (centres undefined)
Result: 30.62

Q: Fill in reported Percent Effect for this entry: O=C(NCC1CCC1)c1cccc(CN2CCS(=O)(=O)CC2)c1
Result: 14.97

Q: Fill in reported Percent Effect for this entry: COCCN1CCN(Cc2nccs2)[C@H]2CS(=O)(=O)C[C@H]21
Result: -6.4

Q: Fill in reported Percent Effect for this entry: CCOC(=O)N1C[C@H]2CC[C@@H]1CN(Cc1ccccc1)C2
Result: 27.53

Q: Fill in reported Percent Effect for this entry: CCc1nc(CN(C)C2CCN(CCC(=O)N3CCCCC3)C2)no1 (centres undefined)
Result: 22.94

Q: Fill in reported Percent Effect for this entry: Cc1ccccc1C(C)NC(=O)CN1CCN(Cc2ccc(Br)s2)CC1 (centres undefined)
Result: -13.55

Q: Fill in reported Percent Effect for this entry: CCC(CN1CCCC1)NC(=O)C1(c2ccc(F)cc2)CC1 (centres undefined)
Result: 52.84

Q: Fill in reported Percent Effect for this entry: COc1ccc(-c2noc(C(N)CCSC)n2)cc1 (centres undefined)
Result: -25.69
